Recorded inhibition by entry
biological target: L-lactate dehydrogenase (Plasmodium falciparum (isolate CDC / Honduras)); test: PfLDH activity inhibition – cell lysate, 3D7 strain, counter-screen for P. falciparum growth inhibition project (AID 2304);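 further: 0% = vehicle and 100% = reference inhibitor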; conditions: P. falciparum 3D7 crude extract, LDH APAD/NBT absorbance; at 2 µM; hits give high values
Endpoint: inhibition (%)

INSERT INTO assay_data (compound, numeric_result) VALUES
  ('Cc1ccc(C(C#N)c2ccc3c(C(F)(F)F)cc(C(F)(F)F)nc3n2)cc1 (stereo not given)', 2),
  ('CCCOc1ccccc1-c1nc2[nH]c3c(c2c(=O)[nH]1)CCN(C)C3', -6),
  ('Cc1ccccc1C1CCN(C2CCC(NC(=O)/C=C/c3ccc(F)c(F)c3)CC2)CC1 (stereo not given)', -1),
  ('CCNc1cc(C)nc(Nc2ccc(NC(=O)c3ccco3)cc2)n1', -2),
  ('Cc1ccc(-c2nc(NC(=O)Nc3ccc(C(F)(F)F)cc3)sc2C)cc1Cl', -5),
  ('COc1cc2ccccc2c(CNCCCCCCNCc2c(OC)c(OC)cc3ccccc23)c1OC', -4),
  ('Cc1cccc2[nH]c(-c3cccc(-c4cccc(NC(=O)NCc5cccc(F)c5)c4)c3)nc12', -2),
  ('NC1=NC(Cc2ccccc2)(c2ccncc2)C(=O)N1CCCc1ccccc1 (stereo not given)', 3),
  ('Fc1ccc(-c2cc(NCCCn3ccnc3)nc(-c3cccnc3)n2)cc1', 0),
  ('CC(C)N1CCN(C(CN2CCN(CCCOc3cccc(F)c3)CC2)c2ccc(F)cc2)CC1 (stereo not given)', 0);
